B1: Far upstream element-binding protein 2, residues 142 to 214; numbered along this chain, Q92945 (parent)
chain: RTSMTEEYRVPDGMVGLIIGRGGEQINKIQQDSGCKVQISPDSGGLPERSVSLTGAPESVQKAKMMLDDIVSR

Variants of: B1
Test: abundance fitness (aPCA) (normalised: wild type 0, dead -1); higher = more abundant; growth selection in yeast, the domain comes from the species named
Conditions: Homo sapiens
Below is a list of entries, each paired with its recorded abundance fitness value.
Form rule: numeric answer, no unit written next to it.

Answered examples (5):
Per the records, this variant ( "G45N" ) has abundance fitness equal to -0.11

Per the records, this variant ( "A63D" ) has abundance fitness equal to -0.666

Per the records, this variant ( "G44Y" ) has abundance fitness equal to -0.084

Per the records, this variant ( "K36G" ) has abundance fitness equal to -0.431

Per the records, this variant ( "G44K" ) has abundance fitness equal to 0.019

New cases:
Per the records, this variant ( "S59V" ) has abundance fitness equal to -0.326

Per the records, this variant ( "S72Y" ) has abundance fitness equal to -0.079

Per the records, this variant ( "Q31K" ) has abundance fitness equal to -0.137

Per the records, this variant ( "I26K" ) has abundance fitness equal to -0.352

Per the records, this variant ( "K28E" ) has abundance fitness equal to -0.243

Per the records, this variant ( "G45Y" ) has abundance fitness equal to -0.299
